Biological target: HLA-DRB1*01:01
Assay: Inhibitory concentration required to inhibit the binding of biotinylated rat myelin basic protein peptide (RMBP90-102) against DR1 allele of class II for 5 hr
Can you tell me IC50 for the items I'm about to list?
Give bare numbers, in µM.

Solved entries:
CCOC(=O)N[C@H](CC(=O)c1ccccc1)C(=O)N[C@H](C(=O)N[C@@H](C)C(=O)N[C@@H](CC(C)C)C(N)=O)C(C)C 45
CCOC(=O)N[C@H](Cc1cccnc1)C(=O)N[C@H](C(=O)N[C@@H](C)C(=O)N[C@@H](CC(C)C)C(N)=O)C(C)C 28
CCOC(=O)N[C@H](Cc1ccc(OC)cc1)C(=O)N[C@H](C(=O)N[C@@H](C)C(=O)N[C@@H](CC(C)C)C(N)=O)C(C)C 0.18

Please supply IC50 for each of the following items, keeping them in order.
1. CCOC(=O)N[C@H](Cc1ccc(Cl)cc1)C(=O)N[C@H](C(=O)N[C@@H](C)C(=O)N[C@@H](CC(C)C)C(N)=O)C(C)C
2. CCOC(=O)N[C@H](Cc1ccc(OC(C)=O)cc1)C(=O)N[C@H](C(=O)N[C@@H](C)C(=O)N[C@@H](CC(C)C)C(N)=O)C(C)C
3. CCOC(=O)N[C@H](CSCc1ccccc1)C(=O)N[C@H](C(=O)N[C@@H](C)C(=O)N[C@@H](CC(C)C)C(N)=O)C(C)C

stdout:
1: 0.073; 2: 1.9; 3: 7
